Biological target: Carbonic anhydrase 9 (Homo sapiens, UniProt Q16790)
Experiment: Inhibition of recombinant human […] assessed as inhibition constant preincubated for 15 mins by phenol red dye based stopped-flow CO2 hydration assay
For each of the compounds below, state its pKi.
Give bare numbers, as −log10 of the molar value.

Check out these entries, answers already filled in.
> print(dat)
                  compound.structure.string  assay.value
1  NS(=O)(=O)c1ccc(-c2ccc(-c3cccc4ncccc34)cc2)s1         7.42
2  Cc1cc(-c2ccc(S(N)(=O)=O)s2)ccc1-c1ccnc2ccccc12         6.97

Could you tell me pKi for each of these compounds? They are listed below.
1. NS(=O)(=O)c1ccc(-c2ccc(-c3ccnc4ccccc34)cn2)s1
2. Cc1cc(-c2ccc(S(N)(=O)=O)s2)cnc1-c1cccc2ccccc12
3. Cc1cc(-c2cccc(S(N)(=O)=O)c2)cnc1-c1ccnc2ccccc12
4. Cc1cc(-c2ccc(S(N)(=O)=O)s2)cnc1-c1cccc2ncccc12
5. NS(=O)(=O)c1ccc(-c2ccc(-c3cccc4ccccc34)cc2)s1

Result string:
1: 7.21; 2: 7.53; 3: 6.67; 4: 7.53; 5: 6.32

Could you tell me pKi for each of these compounds? They are listed below.
1. Cc1cc(-c2ccc(S(N)(=O)=O)cc2)ccc1-c1cccc2ccccc12
2. NS(=O)(=O)c1ccc(-c2ccc(-c3cccc4ccccc34)cc2)cc1
3. Cc1cc(-c2ccc(S(N)(=O)=O)s2)cnc1-c1ccnc2ccccc12

Result string:
[7.12, 7.07, 7.17]
